# Species: Rattus norvegicus
# testName: Open TG-GATES - Regimen: Daily Repeat
# Assay type: toxicity, organism-based, Sprague-Dawley
# Design: regimen Daily Repeat, gender Male, age 6 weeks
# cond: in vivo, po, 0 mg/kg, […], tissue Plasma, route gavage, dose level Control, time 14 day
Give AST for every item shown.
Answer with a number only, understood to be in IU/L.

Query O=C1CN(/N=C/c2ccc(-c3ccc([N+](=O)[O-])cc3)o2)C(O)=N1 yields AST of 61.6

Just so you know, measured AST for O=P1(N(CCCl)CCCl)NCCCO1 (stereo unspecified) [CYCLOPHOSPHAMIDE ANHYDROUS] came out at 65.8

Just so you know, measured AST for Cc1cccc(Nc2cc(Cl)nc(SCC(=O)O)n2)c1C came out at 65.8

The compound O=C1NC(=O)C(c2ccccc2)(c2ccccc2)N1 showed AST equal to 63

Documented AST of CS(=O)(=O)Nc1ccc([N+](=O)[O-])cc1Oc1ccccc1 [NIMESULIDE] : 60

The compound listed as Cc1cnc(NC(=O)C2=C(O)c3ccccc3S(=O)(=O)N2C)s1 has a reported AST of 69.6

// AST lookup, compound = C=CCO , result: 61.2

// AST value for Cn1cnc([N+](=O)[O-])c1Sc1ncnc2nc[nH]c12 : 66.8

The reported AST of the compound Cn1c(=O)c2c(ncn2C)n(C)c1=O was 68.4

Summary for this compound, COc1ccc(Cl)cc1C(=O)NCCc1ccc(S(=O)(=O)NC(=O)NC2CCCCC2)cc1 [GLYBURIDE] : AST is 62.6

Sample COc1ccc(O)c(C(C)(C)C)c1.COc1ccc(O)cc1C(C)(C)C [BUTYLATED HYDROXYANISOLE] ; AST observed: 57.6

====

Kindly supply the reported GLC values for the records listed here.
# Species: Rattus norvegicus
# testName: Open TG-GATES - Regimen: Daily Repeat
# Type: toxicity, organism-based, Sprague-Dawley
# Design: regimen Daily Repeat, gender Male, age 6 weeks
# cond: in vivo, po, 0 mg/kg, […], tissue Plasma, route gavage, dose level Control, time 14 day
Write the number in mg/dL without appending the unit.

Cc1cccc(Nc2cc(Cl)nc(SCC(=O)O)n2)c1C has a reported GLC of 202.4

Looking up COc1ccc(O)c(C(C)(C)C)c1.COc1ccc(O)cc1C(C)(C)C [BUTYLATED HYDROXYANISOLE] , I see its GLC listed as 181.4

// GLC lookup, compound = C=CCO , result: 234

Data point: O=C1NC(=O)C(c2ccccc2)(c2ccccc2)N1 ; GLC = 199.4

GLC measured on Cn1c(=O)c2c(ncn2C)n(C)c1=O = 216

In plain terms, O=C1CN(/N=C/c2ccc(-c3ccc([N+](=O)[O-])cc3)o2)C(O)=N1 has a documented GLC of 203.6

response.value for CS(=O)(=O)Nc1ccc([N+](=O)[O-])cc1Oc1ccccc1 [NIMESULIDE] (field: GLC) = 199.4

// sample Cn1cnc([N+](=O)[O-])c1Sc1ncnc2nc[nH]c12 , its GLC was 178.2

compound O=P1(N(CCCl)CCCl)NCCCO1 (stereo not given) [CYCLOPHOSPHAMIDE ANHYDROUS] , GLC observed: 182.6

GLC measured on COc1ccc(Cl)cc1C(=O)NCCc1ccc(S(=O)(=O)NC(=O)NC2CCCCC2)cc1 [GLYBURIDE] = 199.8

====

# Species: Rattus norvegicus
# testName: Open TG-GATES - Regimen: Single
# Format: toxicity, organism-based, Sprague-Dawley
# Parameters: regimen Single, gender Male, age 6 weeks
# cond: in vivo, po, 0 mg/kg, 3 h, tissue Kidney, route gavage, dose level Control
Record form. Attribute: KIDNEY_L. Fill in for each entry.
Write the numeric value and append its unit.

Entry Cc1cnc(NC(=O)C2=C(O)c3ccccc3S(=O)(=O)N2C)s1 — recorded KIDNEY_L = 1 g

Value of KIDNEY_L reported for the molecule COc1ccc(O)c(C(C)(C)C)c1.COc1ccc(O)cc1C(C)(C)C [BUTYLATED HYDROXYANISOLE] is 0.9 g

Sample Cn1cnc([N+](=O)[O-])c1Sc1ncnc2nc[nH]c12 ; KIDNEY_L observed: 0.9 g

The measured KIDNEY_L associated with COc1ccc(Cl)cc1C(=O)NCCc1ccc(S(=O)(=O)NC(=O)NC2CCCCC2)cc1 [GLYBURIDE] reads 1 g

Per the record, S=C=Nc1cccc2ccccc12 [1-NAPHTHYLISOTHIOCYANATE] has KIDNEY_L of 1 g

KIDNEY_L in this record for CS(=O)(=O)Nc1ccc([N+](=O)[O-])cc1Oc1ccccc1 [NIMESULIDE] : 0.9 g

Just so you know, measured KIDNEY_L for O=P1(N(CCCl)CCCl)NCCCO1 (centres undefined) [CYCLOPHOSPHAMIDE ANHYDROUS] came out at 0.9 g

Kindly note the recorded KIDNEY_L for O=C1CN(/N=C/c2ccc(-c3ccc([N+](=O)[O-])cc3)o2)C(O)=N1 , which is 1 g

Record summary for C=CCO : reported KIDNEY_L = 0.9 g

====

# Species: Rattus norvegicus
# testName: Open TG-GATES - Regimen: Daily Repeat
# Format: toxicity, organism-based, Sprague-Dawley
# Set-up: regimen Daily Repeat, gender Male, age 6 weeks
# cond: in vivo, po, 0 mg/kg, […], tissue Kidney, route gavage, dose level Control, time 28 day
Could you please report measured KIDNEY_TOTAL for the items listed next?
Please give a number only; it is taken to be in g.

KIDNEY_TOTAL reported for this compound Cc1cccc(Nc2cc(Cl)nc(SCC(=O)O)n2)c1C [PIRINIXIC ACID] : 2.7

What the record says about O=C1NC(=O)C(c2ccccc2)(c2ccccc2)N1 [PHENYTOIN] : KIDNEY_TOTAL is 2.6

Given item O=C1CN(/N=C/c2ccc(-c3ccc([N+](=O)[O-])cc3)o2)C(O)=N1 [DANTROLENE] , the value recorded as its KIDNEY_TOTAL is 2.7

The measured KIDNEY_TOTAL associated with CS(=O)(=O)Nc1ccc([N+](=O)[O-])cc1Oc1ccccc1 [NIMESULIDE] reads 2.8

Query C=CCO [ALLYL ALCOHOL] yields KIDNEY_TOTAL of 2.6

====

# Organism: Rattus norvegicus
# testName: Open TG-GATES - Regimen: Single
# Assay type: toxicity, organism-based, Sprague-Dawley
# Parameters: regimen Single, gender Male, age 6 weeks
# cond: in vivo, po, 0 mg/kg, 9 h, tissue Plasma, route gavage, dose level Control
reportedEndpoint: GLC (mg/dL)
Give the number; mg/dL is assumed, so skip it.

Record COc1ccc(Cl)cc1C(=O)NCCc1ccc(S(=O)(=O)NC(=O)NC2CCCCC2)cc1 [GLYBURIDE] , field GLC: 216.2

Form field GLC, entry Cc1cccc(Nc2cc(Cl)nc(SCC(=O)O)n2)c1C : 189

According to the records, this compound CS(=O)(=O)Nc1ccc([N+](=O)[O-])cc1Oc1ccccc1 [NIMESULIDE] displays GLC of 193.6

Sure, the documented GLC for Cn1cnc([N+](=O)[O-])c1Sc1ncnc2nc[nH]c12 is 176.2

Briefly, GLC measured for S=C=Nc1cccc2ccccc12 [1-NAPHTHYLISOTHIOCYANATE] : 201.4

GLC recorded for this compound, C=CCO , is 208.2

Short answer for O=C1CN(/N=C/c2ccc(-c3ccc([N+](=O)[O-])cc3)o2)C(O)=N1 : GLC was 200.2

// field: GLC; key: O=C1NC(=O)C(c2ccccc2)(c2ccccc2)N1 ; value = 177.4

Query CNCCC(Oc1ccc(C(F)(F)F)cc1)c1ccccc1.Cl (stereo not given) [FLUOXETINE HYDROCHLORIDE] yields GLC of 188.2

For COc1ccc(O)c(C(C)(C)C)c1.COc1ccc(O)cc1C(C)(C)C [BUTYLATED HYDROXYANISOLE] the compound record lists GLC as 177.4

====

# Species on record: Rattus norvegicus
# testName: Open TG-GATES - Regimen: Daily Repeat
# Type: toxicity, organism-based, Sprague-Dawley
# Design: regimen Daily Repeat, gender Male, age 6 weeks
# cond: in vivo, po, 0 mg/kg, […], tissue Plasma, route gavage, dose level Control, time 28 day
reportedEndpoint: TG (mg/dL)
Just the number please, in mg/dL, no unit attached.

Field TG (entry C=CCO ) reads 100.2

// COc1ccc(Cl)cc1C(=O)NCCc1ccc(S(=O)(=O)NC(=O)NC2CCCCC2)cc1 [GLYBURIDE] : TG value = 91.2

Summary for this compound, COc1ccc(O)c(C(C)(C)C)c1.COc1ccc(O)cc1C(C)(C)C [BUTYLATED HYDROXYANISOLE] : TG is 179.6

Measured TG, O=C1CN(/N=C/c2ccc(-c3ccc([N+](=O)[O-])cc3)o2)C(O)=N1 : 127.2

// field: TG; key: Cc1cnc(NC(=O)C2=C(O)c3ccccc3S(=O)(=O)N2C)s1 ; value = 141.2

Sample CS(=O)(=O)Nc1ccc([N+](=O)[O-])cc1Oc1ccccc1 [NIMESULIDE] ; TG observed: 160.4
